Known cytotoxicity at 24 h, 10 µM of a selection of molecules
# experimental-details: Cytotoxicity against human HEK293 cells assessed as reduction in cell viability at 10 uM incubated for 24 hrs by Cell-Titer Glo luminescence assay
# Format: toxicity, cell-based
# condition-summary: read-out: INH
test-readout: cytotoxicity at 24 h, 10 µM (%)

COc1cccc(Nc2ncnc3c(N/N=C/c4ccc(OC)c(OC)c4)ncnc23)c1    18
COc1cc(/C=N/Nc2ncnc3c(Nc4ccc(Cl)c(C(F)(F)F)c4)ncnc23)cc(OC)c1O    -1
Oc1ccc(/C=N/Nc2ncnc3c(Nc4ccc(F)c(Cl)c4)ncnc23)cc1O    -6
COc1cc(/C=N/Nc2ncnc3c(Nc4ccc(OC(F)(F)F)cc4)ncnc23)ccc1O    19
Oc1ccc(/C=N/Nc2ncnc3c(Nc4ccc(OC(F)(F)F)cc4)ncnc23)cc1O    24
Oc1cc(/C=N/Nc2ncnc3c(Nc4ccc(Cl)c(C(F)(F)F)c4)ncnc23)cc(O)c1O    -2
Oc1cc(/C=N/Nc2ncnc3c(Nc4ccc(OC(F)(F)F)cc4)ncnc23)cc(O)c1O    7
COc1ccc(/C=N/Nc2ncnc3c(Nc4ccc(OC(F)(F)F)cc4)ncnc23)cc1O    10
Oc1cc(/C=N/Nc2ncnc3c(Nc4ccc(F)c(Cl)c4)ncnc23)cc(O)c1O    24
COc1cc(/C=N/Nc2ncnc3c(Nc4ccc(OC(F)(F)F)cc4)ncnc23)cc(OC)c1OC    2
COc1ccc(Nc2ncnc3c(N/N=C/c4ccc(OC)c(OC)c4)ncnc23)cc1    12
COc1cc(/C=N/Nc2ncnc3c(Nc4ccc(F)c(Cl)c4)ncnc23)ccc1O    13
COc1cccc(Nc2ncnc3c(N/N=C/c4ccc(O)c(O)c4)ncnc23)c1    7
Oc1ccc(/C=N/Nc2ncnc3c(Nc4ccc(Cl)c(C(F)(F)F)c4)ncnc23)cc1O    3
COc1ccc(Nc2ncnc3c(NN)ncnc23)cc1    -7
COc1ccc(/C=N/Nc2ncnc3c(Nc4ccc(Cl)c(C(F)(F)F)c4)ncnc23)cc1O    -3
COc1cc(/C=N/Nc2ncnc3c(Nc4ccc(F)c(Cl)c4)ncnc23)cc(OC)c1OC    14
COc1ccc(/C=N/Nc2ncnc3c(Nc4ccc(F)c(Cl)c4)ncnc23)cc1O    -3
COc1ccc(Nc2ncnc3c(N/N=C/c4cc(O)c(O)c(O)c4)ncnc23)cc1    3
COc1cc(/C=N/Nc2ncnc3c(Nc4ccc(Cl)c(C(F)(F)F)c4)ncnc23)cc(OC)c1OC    -2
